Hello, the source for this data is PubChem BioAssay (NCI), in case you need it.

Reported TGI values for the following molecules.
- System: CAKI-1 renal
- TEST NAME: NCI tumour cell line growth inhibition, 48 h

MOLECULE	TEST SYSTEM	TGI
CN(C)c1ccccc1[CH2][Ga]([Cl])[CH2]c1ccccc1N(C)C	CAKI-1 renal	3.94 µM
O=c1[nH]c2cc([N+](=O)[O-])c(N/N=C/c3ccc(Cl)cc3Cl)c([N+](=O)[O-])c2[nH]1	CAKI-1 renal	> 100 µM
COc1ccc(NC(=O)c2ccc(NC3=C(Cl)C(=O)N(Cc4ccccc4)C3=O)cc2)c(OC)c1	CAKI-1 renal	1.96 µM
CN(C)C(=NC#N)N(Cc1ccccc1)Cc1ccccc1	CAKI-1 renal	> 100 µM
Cc1cccc(C)c1N=Nc1ccc(O)c(CN(C)C)c1	CAKI-1 renal	> 100 µM
NC(N)=N/N=C/c1c(-c2cccnc2)nc2sc(Cl)cn12	CAKI-1 renal	43.4 µM
CC(C)OP(=O)(OC(C)C)C(=NCCN=C(NNc1ccccc1[N+](=O)[O-])P(=O)(OC(C)C)OC(C)C)NNc1ccccc1[N+](=O)[O-]	CAKI-1 renal	> 100 µM
CCOc1cccc(-c2cc(=O)c3cc4c(cc3[nH]2)OCO4)c1	CAKI-1 renal	9.67 µM
[Cu+2].[NH-]C(CC(=O)O)C(=O)O.[NH-]C(CC(=O)O)C(=O)O (stereo not drawn)	CAKI-1 renal	> 100 µM
O=c1oc2ccc(Br)cc2c(=O)n1-c1ccc(Cl)cc1F	CAKI-1 renal	4.37 µM
O=C1C(c2ccccc2)=C(c2ccccc2)C(c2ccc(Sc3ccc(C4=C(c5ccccc5)C(=O)C(c5ccccc5)=C4c4ccccc4)cc3)cc2)=C1c1ccccc1	CAKI-1 renal	> 100 µM
COc1cc(CNc2cnc3ccc(N)cc3n2)cc(OC)c1OC	CAKI-1 renal	> 100 µM
COC(=O)/N=[N+](\[O-])C(c1ccccc1)c1ccccc1	CAKI-1 renal	> 100 µM
O=C(O)CN(c1ccc(F)cc1)S(=O)(=O)c1ccccc1	CAKI-1 renal	> 100 µM
C=CCOC(=O)Nc1cccn([C@H](CC(C)C)C(=O)NCCC(C)C)c1=O	CAKI-1 renal	> 100 µM
O=[N+]([O-])C(/C=C(\Cl)[N+](=O)[O-])=C(N1CCCCC1)N1CCCCC1	CAKI-1 renal	> 100 µM
CC(=O)NNc1nc(C)c(C(=O)/C=C/c2ccc(Cl)c(Cl)c2)s1	CAKI-1 renal	> 100 µM
CNC(=O)c1cccc(C#Cc2cncnc2Nc2ccc(OCc3cccc(F)c3)c(Cl)c2)c1	CAKI-1 renal	> 25 µM
Cc1ccc(C(=O)Nc2ncn(C3CC(O)C(CO)O3)c(=O)n2)cc1 (stereo not drawn)	CAKI-1 renal	> 100 µM
CC1Cc2ccccc2N1C(=O)Cc1nc(N2CCOCC2)cc(=O)[nH]1 (stereo not drawn)	CAKI-1 renal	> 100 µM
CC(=O)OCC1OC(n2ncc(=O)[nH]c2=O)C(OC(C)=O)C1OC(C)=O (stereo not drawn)	CAKI-1 renal	> 100 µM
Cc1cn(C2CCN(CC3COC(C)(C)O3)O2)c(=O)[nH]c1=O (stereo not drawn)	CAKI-1 renal	> 100 µM
CCOC(=O)C12CC(C)=C(C)CC1CCCc1ccccc12 (stereo not drawn)	CAKI-1 renal	> 100 µM
Cc1cc(S(=O)(=O)NC(=NCCc2ccccc2)NN)c(S)cc1Cl	CAKI-1 renal	> 100 µM
COc1ccc(Cn2cc3c(c2-c2cc(OC)c(OC)c(OC)c2)CCc2c(CO)noc2-3)cc1	CAKI-1 renal	20.1 µM
COC(=O)C1[C@H](c2ccc3c(c2)OCO3)OC(=O)[C@]1(C(=O)OC)C(=O)c1ccc(OC)c(OC)c1 (stereo partly drawn)	CAKI-1 renal	> 100 µM
O=S(=O)(O)c1ccc2c(N=Nc3ccccc3)c(O)ccc2c1	CAKI-1 renal	> 100 µM
COP(=O)(OC)[C@H](O)[C@H]1C[C@@H]1c1ccccc1	CAKI-1 renal	> 100 µM
CCC1(c2ccc(N)cc2)CCC(=O)NC1=O (stereo not drawn)	CAKI-1 renal	4310 µM
COc1cc(C2CC(=O)Nc3c2c(C)nn3-c2nc3ccccc3[nH]2)cc(OC)c1O (stereo not drawn)	CAKI-1 renal	5.44 µM
O=C(CSSCC(=O)OCCS(=O)(=O)Nc1ccc(Br)cc1)OCCS(=O)(=O)Nc1ccc(Br)cc1	CAKI-1 renal	68.4 µM
Nc1cc(Cl)ccc1SSc1ccc(Cl)cc1N	CAKI-1 renal	35.7 µM
CC(=O)OCCCC#CC#Cc1cccc(=O)o1	CAKI-1 renal	28.3 µM
CN(C)CC1CCC/C(=C\c2ccccc2)C1=O (stereo not drawn)	CAKI-1 renal	3.2 µM
O=C1C=C(c2ccccc2)O/C1=C\C(=O)c1ccc(Cl)cc1	CAKI-1 renal	32.5 µM
COc1ccc(-c2cn(-c3cc(OC)c(OC)c(OC)c3)c(=O)[nH]2)cc1OC	CAKI-1 renal	> 100 µM
NC(=O)CCSC(CC(=O)c1ccc(Cl)cc1)c1ccc(Cl)cc1 (stereo not drawn)	CAKI-1 renal	42.6 µM
Cn1c(=O)c(Oc2ccc(F)cc2F)cc2cnc(NC3CCOCC3)nc21	CAKI-1 renal	> 25 µM
Cc1ccccc1Nc1nc(NNC(=O)Cc2ccccc2)nc(NNC(=O)c2ccncc2)n1	CAKI-1 renal	> 10 µM
CC(C)=NNC(=S)NC12CC3CC(CC(C3)C1)C2	CAKI-1 renal	> 100 µM
Cn1c(=O)ccc2c(=O)c3ccccc3oc21	CAKI-1 renal	> 100 µM
O=C1/C(=C/c2ccc(O)c(O)c2)CC/C1=C\c1ccc(O)c(O)c1	CAKI-1 renal	> 57.7 µM
COc1ccc(N=Nc2c(N)nn(C)c2N)cc1	CAKI-1 renal	> 100 µM
